system: GDP-bound KRAS wild-type protein (Homo sapiens, UniProt P01116)
Sequence (P01116 whole entry): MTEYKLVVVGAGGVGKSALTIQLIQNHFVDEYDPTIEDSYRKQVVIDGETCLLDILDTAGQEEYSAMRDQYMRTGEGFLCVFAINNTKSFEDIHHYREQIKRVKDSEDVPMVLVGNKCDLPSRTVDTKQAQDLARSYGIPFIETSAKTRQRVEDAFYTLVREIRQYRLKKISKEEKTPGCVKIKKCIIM
test: Binding to KRAS by surface plasmon resonance (SPR), Single Cycle Kinetics
setup_conditions: SPR, Single Cycle Kinetics, GDP-bound KRAS wild-type protein; read-out: KRAS KD
pKd: −log10 of the molar value.
Below, each entry is listed alongside its reported pKd.
readout_label: pKd

{"structure": "CCCO[C@@H]1C[C@H]2C(=O)NC3(CC(C)(C)C3)C(=O)N(C)[C@@H](C3CCCC3)C(=O)N(C)[C@H](C(=O)N(C)CC)CC(=O)N(C)[C@H]3CCCc4ccc(cc4)C[C@@H](C(=O)N(C)CC(=O)N[C@@H](CCc4ccc(C(F)(F)F)c(OC)c4)C(=O)N2C1)N1CC/C=C\\C[C@@H](C1=O)N(C)C(=O)CN(C1CC1)C(=O)[C@H]([C@@H](C)CC)NC3=O", "readout_label": "pKd", "result": 9.47}
{"structure": "CCCO[C@@H]1C[C@H]2C(=O)NC3(CC(C)(C)C3)C(=O)N(C)[C@@H](C3CCCC3)C(=O)N(C)[C@H](C(=O)N(C)C)CC(=O)N(C)[C@H]3CCCCc4ccc(cc4)C[C@@H](C(=O)N(C)CC(=O)N[C@@H](CCc4ccc(Cl)c(Cl)c4)C(=O)N2C1)N1CC/C=C\\C[C@@H](C1=O)N(C)C(=O)CN(C)C(=O)[C@H]([C@@H](C)CC)NC3=O", "readout_label": "pKd", "result": 10.05}
